All figures here come from patent EP1148124A1.

assay_explanation: Reporter assay (No. 2), cell number reporter gene (sea pansy luciferase, pRL-TK), clone of Example 3
Format: cell-based
experimental_parameters: mouse, hepa1c1c7 cells; final conc. 10 nM; about 6 hours; ratio to 0 nM; read-out: Amount of luminescence by sea pansy luciferase (from pRL-TK) Ratio
quantity_kind: viability at 6 h, 0.01 µM (%)
Give the value, in units of %, as a plain number.

Could you tell me which viability at 6 h, 0.01 µM is on file for c1ccc2c(c1)cc1ccc3cccc4ccc2c1c34 [Benzo[a]pyrene, benzo[a]pyrene] ?
90

* * *

assay_explanation: Reporter assay (No. 2), cell number reporter gene (sea pansy luciferase, pRL-TK), clone of Example 3
Format: cell-based
experimental_parameters: mouse, hepa1c1c7 cells; final conc. 100 nM; about 6 hours; ratio to 0 nM; read-out: Amount of luminescence by sea pansy luciferase (from pRL-TK) Ratio
quantity_kind: viability at 6 h, 0.1 µM (%)
Use % as the unit, but write only the number.

Need viability at 6 h, 0.1 µM of c1ccc2c(c1)cc1ccc3cccc4ccc2c1c34 [Benzo[a]pyrene, benzo[a]pyrene] , thanks.
80

* * *

assay_explanation: Reporter assay (No. 1), cell number reporter gene (sea pansy luciferase, pRL-TK), clone of Example 2
Assay type: cell-based
experimental_parameters: mouse, hepa1c1c7 cells, final conc. 20000 pg/ml; about 40 hours; ratio to 0 pg/ml; read-out: Amount of luminescence by sea pansy luciferase (from pRL-TK) Ratio
quantity_kind: viability at 40 h (%)
Your answer should be a plain number; it is taken to be in %.

Fill in the blank: the reported viability at 40 h of "Clc1cc2c(cc1Cl)Oc1cc(Cl)c(Cl)cc1O2" is ____.
60

* * *

assay_explanation: Reporter assay (No. 2), cell number reporter gene (sea pansy luciferase, pRL-TK), clone of Example 3
Assay type: cell-based
experimental_parameters: mouse, hepa1c1c7 cells; final conc. 1 nM; about 6 hours; ratio to 0 nM; read-out: Amount of luminescence by sea pansy luciferase (from pRL-TK) Ratio
quantity_kind: viability at 6 h, 0.001 µM (%)
Field format: number, assumed %, no unit text.

Given c1ccc2c(c1)cc1ccc3cccc4ccc2c1c34 [Benzo[a]pyrene, benzo[a]pyrene] , state its recorded viability at 6 h, 0.001 µM.
90

* * *

assay_explanation: Reporter assay (No. 2), cell number reporter gene (sea pansy luciferase, pRL-TK), clone of Example 3
Assay type: cell-based
experimental_parameters: mouse, hepa1c1c7 cells
quantity_kind: viability at 6 h, 50 µM (%)
Kindly answer with a numeric value in %, unit omitted.

Request the reported viability at 6 h, 50 µM associated with C[C@@H]1C[C@H]2[C@@H]3CCC4=CC(=O)C=C[C@]4(C)[C@@]3(F)[C@@H](O)C[C@]2(C)[C@@]1(O)C(=O)CO [Dexamethasone, dexamethasone]
110

* * *

assay_explanation: Reporter assay (No. 2), cell number reporter gene (sea pansy luciferase, pRL-TK), clone of Example 3
Format: cell-based
experimental_parameters: mouse, hepa1c1c7 cells
quantity_kind: viability at 6 h, 0.001 µM (%)
Reply numerically in %, unit not repeated.

Which viability at 6 h, 0.001 µM reading was recorded for the molecule "C[C@@H]1C[C@H]2[C@@H]3CCC4=CC(=O)C=C[C@]4(C)[C@@]3(F)[C@@H](O)C[C@]2(C)[C@@]1(O)C(=O)CO" ?
100

* * *

assay_explanation: Reporter assay (No. 2), cell number reporter gene (sea pansy luciferase, pRL-TK), clone of Example 3
Assay type: cell-based
experimental_parameters: mouse, hepa1c1c7 cells; final conc. 1000 nM; about 6 hours; ratio to 0 nM; read-out: Amount of luminescence by sea pansy luciferase (from pRL-TK) Ratio
quantity_kind: viability at 6 h, 1 µM (%)
Note: unit % is implicit; provide only the numeric part.

Data request, read-out viability at 6 h, 1 µM, for c1ccc2c(c1)cc1ccc3cccc4ccc2c1c34 [Benzo[a]pyrene, benzo[a]pyrene]
90
